target_desc: T1, PDZRN3_1, Q9UPQ7
T1 sequence (Q9UPQ7 244-349, limits assumed, looked up): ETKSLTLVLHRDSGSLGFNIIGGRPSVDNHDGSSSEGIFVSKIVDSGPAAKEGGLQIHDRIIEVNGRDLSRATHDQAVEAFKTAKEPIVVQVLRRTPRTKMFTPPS
assay_summary: holdup assay
Design: key: below the threshold = too weak to quantify, mostly under pKd 3.1 to 4
condition_label: plain residues with an end cap or a label only (N-terminal biotin on a linker: ttds)
metric: pKd
Please reply with the value in numeric form only.

These solved cases illustrate the format of a correct answer.
| binder | observed_measurement |
| --- | --- |
| PSRDRKETSI [RALBP1, Q15311] | 4.37 |
| PPRQRSETQV [HPV82-E6, Q9IR59] | 3.81 |

[ask] Give a short answer stating reported pKd for GARVSKETPL [MAPK12, P53778] .
[reply] 4.84

[ask] Give me measured pKd, please, for this binder: SHSSKGETAV [FZD7, O75084]
[reply] 4.51

[ask] Given KLVIKTETTV [RASSF6, Q6ZTQ3] , respond with its pKd.
[reply] 3.82
